run_description: Tmax in healthy human (24 volunteers) at 400 mg, po test formulation of drug administered as single dose
Type: ADME, organism-based
measurement_parameters: in vivo
property_label: Tmax (h)
Respond with the bare value in h.

GET /values?readout=Tmax&item= `CC[C@H]1OC(=O)[C@H](C)[C@@H](O[C@H]2C[C@@](C)(OC)[C@@H](O)[C@H](C)O2)[C@H](C)[C@@H](O[C@@H]2O[C@H](C)C[C@H](N(C)C)[C@H]2O)[C@](C)(O)C[C@@H](C)C(=O)[C@H](C)[C@@H](O)[C@]1(C)O`
1.4

---

run_description: Clearance in healthy human (24 volunteers) at 500 mg, po reference formulation of drug administered as single dose by two-compartmental open model
Type: ADME, organism-based
measurement_parameters: in vivo
property_label: CL/F

GET /values?readout=CL/F&item= `CC[C@@H]1OC(=O)[C@H](C)[C@@H](O[C@@H]2C[C@](C)(OC)[C@H](O)[C@@H](C)O2)[C@@H](C)[C@@H](O[C@@H]2O[C@H](C)C[C@H](N(C)C)[C@H]2O)[C@](C)(O)C[C@@H](C)CN(C)[C@H](C)[C@@H](O)[C@]1(C)O`
103 mL/min/kg
